Listing of recorded absorbance maximum (λmax, abs) by entry.
Assay: Absorbance spectra of cyanine fluorophores in different solvents (absorbance maximum, molar absorptivity)
Settings: methanol

{"Compound": "CC1(C)C(/C=C/C2=C3Oc4ccc(CCC(=O)O)cc4OC4=C3C(CC2)CC/C4=C\\C=C2\\N(CCCCS(=O)(=O)[O-])c3ccc(S(=O)(=O)[O-])cc3C2(C)C)=[N+](CCCCS(=O)(=O)[O-])c2ccc(S(=O)(=O)[O-])cc21.[Na+].[Na+].[Na+] (stereo not drawn) [NIR-900-Et]", "Units Label": "nm", "absorbance maximum (λmax, abs)": 860}
{"Compound": "CC1(C)C(/C=C/C2=C3Sc4ccccc4SC4=C3C(CC2)CC/C4=C\\C=C2\\N(CCCCS(=O)(=O)[O-])c3ccc(S(=O)(=O)[O-])cc3C2(C)C)=[N+](CCCCS(=O)(=O)[O-])c2ccc(S(=O)(=O)[O-])cc21.[Na+].[Na+].[Na+] (stereo not drawn) [NIR-950]", "Units Label": "nm", "absorbance maximum (λmax, abs)": 890}
{"Compound": "CC1(C)C(/C=C/C2=C3Oc4ccccc4OC4=C3C(CC2)CC/C4=C\\C=C2\\N(CCCCS(=O)(=O)[O-])c3ccccc3C2(C)C)=[N+](CCCCS(=O)(=O)[O-])c2ccccc21.[Na+] (stereo not drawn) [BisSO3-NIR-890]", "Units Label": "nm", "absorbance maximum (λmax, abs)": 860}

====

Assay: Emission (fluorescence) spectra of cyanine fluorophores in different solvents
Settings: 10% (v/v) FBS in pH 7.4 PBS
Quick reference for emission maximum (λmax, emiss) among some molecules
Property Name: emission maximum (λmax, emiss) (nm)

{"Molecule": "CC1(C)C(/C=C/C2=C3Oc4ccc(CCC(=O)O)cc4OC4=C3C(CC2)CC/C4=C\\C=C2\\N(CCCCS(=O)(=O)[O-])c3ccc(S(=O)(=O)[O-])cc3C2(C)C)=[N+](CCCCS(=O)(=O)[O-])c2ccc(S(=O)(=O)[O-])cc21.[Na+].[Na+].[Na+] (stereo not drawn)", "Property Name": "emission maximum (λmax, emiss)", "Units Label": "nm", "Assay Value": 900}
{"Molecule": "CC1(C)C(/C=C/C2=C3C4=C(/C(=C/C=C5/N(CCCCS(=O)(=O)O)c6ccc(S(=O)(=O)[O-])cc6C5(C)C)CCC4CC2)c2cc(C(=O)O)ccc23)=[N+](CCCCS(=O)(=O)O)c2ccc(S(=O)(=O)O)cc21.N.N.N (stereo not drawn)", "Property Name": "emission maximum (λmax, emiss)", "Units Label": "nm", "Assay Value": 1086}
{"Molecule": "CC1(C)C(/C=C/C2=C3Sc4ccccc4SC4=C3C(CC2)CC/C4=C\\C=C2\\N(CCCCS(=O)(=O)[O-])c3ccc(S(=O)(=O)[O-])cc3C2(C)C)=[N+](CCCCS(=O)(=O)[O-])c2ccc(S(=O)(=O)[O-])cc21.[Na+].[Na+].[Na+] (stereo not drawn)", "Property Name": "emission maximum (λmax, emiss)", "Units Label": "nm", "Assay Value": 955}
{"Molecule": "CC1(C)C(/C=C/C2=C3Oc4ccc(C(=O)N(CCCS(=O)(=O)O)CCC(=O)O)cc4OC4=C3C(CC2)CC/C4=C\\C=C2\\N(CCCCS(=O)(=O)O)c3ccc(S(=O)(=O)[O-])cc3C2(C)C)=[N+](CCCCS(=O)(=O)O)c2ccc(S(=O)(=O)O)cc21.N.N.N.N (stereo not drawn)", "Property Name": "emission maximum (λmax, emiss)", "Units Label": "nm", "Assay Value": 900}
{"Molecule": "CC1(C)C(/C=C/C2=C3Oc4ccccc4OC4=C3C(CC2)CC/C4=C\\C=C2\\N(CCCCS(=O)(=O)[O-])c3ccccc3C2(C)C)=[N+](CCCCS(=O)(=O)[O-])c2ccccc21.[Na+] (stereo not drawn)", "Property Name": "emission maximum (λmax, emiss)", "Units Label": "nm", "Assay Value": 900}
{"Molecule": "CC1(C)C(/C=C/C2=C3Oc4ccc(C(=O)O)cc4OC4=C3C(CC2)CC/C4=C\\C=C2\\N(CCCCS(=O)(=O)[O-])c3ccc(S(=O)(=O)[O-])cc3C2(C)C)=[N+](CCCCS(=O)(=O)[O-])c2ccc(S(=O)(=O)[O-])cc21.[Na+].[Na+].[Na+] (stereo not drawn)", "Property Name": "emission maximum (λmax, emiss)", "Units Label": "nm", "Assay Value": 896}
